B1: Pistol ribozyme (parent)
chain: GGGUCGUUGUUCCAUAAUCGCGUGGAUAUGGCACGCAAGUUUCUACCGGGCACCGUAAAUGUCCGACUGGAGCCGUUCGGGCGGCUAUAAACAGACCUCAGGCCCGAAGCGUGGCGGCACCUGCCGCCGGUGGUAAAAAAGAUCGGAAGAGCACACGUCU

# Variants of: B1
# Assay summary: aptazyme ON/OFF ratio, guanine; higher = stronger switching; co-transcriptional cleavage with and without guanine
Measured attribute: aptazyme ON/OFF ratio

[
  {
    "Mutant code": "U8G G9A U10G U11G C12G C13G",
    "Measured attribute": "aptazyme ON/OFF ratio",
    "Value observed": 1.44
  },
  {
    "Mutant code": "U7A G9A U10A C12G C13A",
    "Measured attribute": "aptazyme ON/OFF ratio",
    "Value observed": 1.25
  },
  {
    "Mutant code": "U10G U11G C13A",
    "Measured attribute": "aptazyme ON/OFF ratio",
    "Value observed": 1.26
  },
  {
    "Mutant code": "U7C U8C U10C U11C C12G",
    "Measured attribute": "aptazyme ON/OFF ratio",
    "Value observed": 1.2
  },
  {
    "Mutant code": "U7A U8C G9U U10G C12A C13A",
    "Measured attribute": "aptazyme ON/OFF ratio",
    "Value observed": 1.45
  },
  {
    "Mutant code": "U7G G9A U10G C12A C13U",
    "Measured attribute": "aptazyme ON/OFF ratio",
    "Value observed": 1.08
  },
  {
    "Mutant code": "U7G U8A G9C U10G U11G C13G",
    "Measured attribute": "aptazyme ON/OFF ratio",
    "Value observed": 1.1
  },
  {
    "Mutant code": "U7A U8A G9C U10A U11G C12G C13A",
    "Measured attribute": "aptazyme ON/OFF ratio",
    "Value observed": 1.18
  },
  {
    "Mutant code": "U7A U8G G9C U10A U11C C12A C13U",
    "Measured attribute": "aptazyme ON/OFF ratio",
    "Value observed": 1.5
  },
  {
    "Mutant code": "U7G U8C G9U U10C C12U C13G",
    "Measured attribute": "aptazyme ON/OFF ratio",
    "Value observed": 1.24
  },
  {
    "Mutant code": "U7C U8C G9U U10A U11G C12G C13G",
    "Measured attribute": "aptazyme ON/OFF ratio",
    "Value observed": 1.08
  },
  {
    "Mutant code": "U7A U8G G9C U10A U11A C12G C13A",
    "Measured attribute": "aptazyme ON/OFF ratio",
    "Value observed": 1.15
  },
  {
    "Mutant code": "U10C U11G C12A C13G",
    "Measured attribute": "aptazyme ON/OFF ratio",
    "Value observed": 1.31
  },
  {
    "Mutant code": "U7G U8A U10G U11A C12G",
    "Measured attribute": "aptazyme ON/OFF ratio",
    "Value observed": 1.43
  },
  {
    "Mutant code": "U8C U10C U11G C13G",
    "Measured attribute": "aptazyme ON/OFF ratio",
    "Value observed": 1.14
  },
  {
    "Mutant code": "U7C U8G G9A U10C U11A",
    "Measured attribute": "aptazyme ON/OFF ratio",
    "Value observed": 1.24
  },
  {
    "Mutant code": "U8A G9U U10A U11A C12U C13U",
    "Measured attribute": "aptazyme ON/OFF ratio",
    "Value observed": 1.53
  },
  {
    "Mutant code": "U8A G9U U10G U11C C12G C13A",
    "Measured attribute": "aptazyme ON/OFF ratio",
    "Value observed": 1.08
  },
  {
    "Mutant code": "U7C U8C G9A U10A C12A C13A",
    "Measured attribute": "aptazyme ON/OFF ratio",
    "Value observed": 1.19
  },
  {
    "Mutant code": "U8A G9A U11G C12U C13G",
    "Measured attribute": "aptazyme ON/OFF ratio",
    "Value observed": 1.18
  },
  {
    "Mutant code": "U7A U8C G9U U10C U11C C13G",
    "Measured attribute": "aptazyme ON/OFF ratio",
    "Value observed": 1.02
  },
  {
    "Mutant code": "U7A U8G U11C C13A",
    "Measured attribute": "aptazyme ON/OFF ratio",
    "Value observed": 1.51
  }
]
